Kindly find below Ki information for Rho-associated protein kinase 1 (Homo sapiens, UniProt Q13464) taken from the literature.

Example entries and their recorded answers appear below.
CN1CCN(CCCOc2cccc(CC(=O)N(c3nc(-c4c[nH]c5ncccc45)cs3)C3CC3)c2)CC1; < 500 nM
Cc1c[nH]c2nccc(Oc3ccc(C[C@H](N)C(=O)N4CCN(Cc5cncn5C)CC4)cc3F)c12; < 3 nM
CC(=O)N1[C@H](C)CN(c2cccc(-c3c[nH]c4ncc(C(=O)N5CCN(C)CC5)cc34)n2)C[C@@H]1C; 500 to 5000 nM
Cc1c[nH]c2nccc(Oc3ccc(CC(N)C(=O)NCCc4ccccn4)cc3F)c12 (stereo not shown); < 3 nM

Problem: With Rho-associated protein kinase 1 (Homo sapiens, UniProt Q13464) as the test system, provide measured Ki for this compound: Cc1c[nH]c2nccc(Oc3ccc(CC(N)C(=O)NCc4ccc(CO)cc4)cc3F)c12 (stereo not shown)
Result: < 3 nM

Problem: With Rho-associated protein kinase 1 (Homo sapiens, UniProt Q13464) as the test system, provide measured Ki for this compound: CC(=O)N1[C@H](C)CN(c2cc(C(=O)O)cc(-c3c[nH]c4ncc(Cl)cc34)n2)C[C@@H]1C
Result: 500 to 5000 nM

Problem: With Rho-associated protein kinase 1 (Homo sapiens, UniProt Q13464) as the test system, provide measured Ki for this compound: C[C@H](Nc1nc(-c2c[nH]c3ncc(Cl)cc23)ncc1F)C(=O)NCCN1CCNC1=O
Result: 500 to 5000 nM
